In this section we review reported normalized growth values for a set of compounds.
test: chemical genetic growth profiling, strain panel (AID 1159580);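 also: tested at 20 µM; growth read once vehicle control cultures reached saturation at 30 °C; 1 = growth at the plate median or of vehicle wells; lower values mean less growth of the strain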; conditions: S. cerevisiae deletion strains, growth OD, locus YOR001W, strain rrp6, hits give low values
Among all 5,500 compounds or so, about 2,000 (36%) were called active. Roughly 18% stayed inconclusive and do not appear here. The list shows a part of the results.
measure name: normalized growth

{"compound": "C=C1c2c(Cl)ccc(O)c2C(O)=C2C(=O)[C@]3(O)C(O)=C(C(N)=O)C(=O)[C@@H](N(C)C)[C@@H]3[C@@H](O)[C@H]12", "observed measurement": 0.997}
{"compound": "CC(C)CCCC(C)[C@H]1CCC2C3CC=C4CC(=O)CC[C@]4(C)C3CC[C@@]21C (some centres undefined)", "observed measurement": 0.933}
{"compound": "CN(C)[C@@H]1C(=O)C(C(=O)NCN2CCCC2)=C(O)[C@@]2(O)C(=O)C3=C(O)c4c(O)cccc4[C@@](C)(O)[C@H]3C[C@@H]12", "observed measurement": 0.89}
{"compound": "CC(=O)OCC(=O)[C@@]1(O)[C@H](C)CC2C3CCC4=CC(=O)C=C[C@]4(C)[C@@]3(F)[C@@H](O)C[C@@]21C (some centres undefined)", "observed measurement": 0.963}
{"compound": "CC1(C)CC2C1CC[C@]1(CBr)CCC3C(CC(=O)O)C(=O)O[C@@]32C1 (some centres undefined)", "observed measurement": 1.01}
{"compound": "CC(=O)O[C@@H]1CC2C(C)(C)[C@H](O)C=C[C@]2(C)C2CC[C@]3(C)C(=CC(=O)O[C@H]3c3ccoc3)[C@@]21C (some centres undefined)", "observed measurement": 0.984}
{"compound": "COc1cc(C(C)=O)cc(OC)c1O", "observed measurement": 1.03}
{"compound": "CCN(CC)CCOCCOC(=O)C1(c2ccccc2)CCCC1", "observed measurement": 0.994}
{"compound": "CC1(C)CC2C1CC[C@]1(C)CCC3C(C(=O)O)CC(=O)O[C@@]32C1 (some centres undefined)", "observed measurement": 1.06}
{"compound": "NS(=O)(=O)c1cc2c(cc1Cl)NC(CSCc1ccccc1)=NS2(=O)=O", "observed measurement": 1.04}
{"compound": "CO[C@H]1CC(O[C@@H]2/C(C)=C/C[C@@H]3C[C@@H](C[C@]4(CC[C@H](C)[C@@H](C5CCCCC5)O4)O3)OC(=O)[C@@H]3C=C(C)/C(=N\\O)[C@H]4OC/C(=C\\C=C\\[C@@H]2C)[C@]43O)O[C@@H](C)C1O (some centres undefined)", "observed measurement": 0.986}
{"compound": "CC(C)CCCC(C)[C@H]1CCC2C3CC=C4C[C@@H](O)CC[C@]4(C)C3CC[C@@]21C (some centres undefined)", "observed measurement": 0.99}
{"compound": "CC12CCC3C(CC3(C)C)C(C)(CCC1=O)O2 (centres undefined)", "observed measurement": 0.95}
{"compound": "CN(C)[C@@H]1C(=O)C(C(N)=O)=C(O)[C@@]2(O)C(=O)C3=C(O)c4c(O)cccc4[C@@](C)(O)[C@H]3[C@H](O)[C@@H]12", "observed measurement": 1.04}
{"compound": "O=C(O)C1=CCCNC1", "observed measurement": 0.943}
{"compound": "CC(=O)O[C@@H]1CC2C(C)(C)C(=O)C=C[C@]2(C)C2CC[C@]3(C)C(=CC(=O)O[C@H]3c3ccoc3)[C@@]21C (some centres undefined)", "observed measurement": 1.01}
{"compound": "CC(C)(C)NC[C@H](O)c1ccc(O)c(CO)c1", "observed measurement": 1.02}
{"compound": "CC(N=C(NC#N)Nc1ccncc1)C(C)(C)C (centres undefined)", "observed measurement": 0.957}
{"compound": "Oc1c(Cl)cc(Cl)cc1Sc1cc(Cl)cc(Cl)c1O", "observed measurement": 0.0689}
{"compound": "CC(C)NCC(O)COc1ccc(COCCOC(C)C)cc1 (centres undefined)", "observed measurement": 1}
{"compound": "C=C1c2cccc(O)c2C(O)=C2C(=O)[C@]3(O)C(O)=C(C(N)=O)C(=O)[C@@H](N(C)C)[C@@H]3[C@@H](O)[C@H]12", "observed measurement": 1.04}
{"compound": "CC(CCc1ccccc1)NCC(O)c1ccc(O)c(C(N)=O)c1 (centres undefined)", "observed measurement": 1.02}
{"compound": "CC1=CCCC2C1(C)CCC(C)C2(C)CC/C(C)=C/C[n+]1cn(C)c2c(N)ncnc21 (centres undefined)", "observed measurement": 1.01}
{"compound": "CN(C)[C@@H]1C(=O)C(C(N)=O)=C(O)[C@@]2(O)C(=O)C3=C(O)c4c(O)ccc(Cl)c4[C@@](C)(O)[C@H]3C[C@@H]12", "observed measurement": 0.978}
{"compound": "CCC(C)[C@H]1O[C@]2(C=C[C@@H]1C)C[C@@H]1C[C@@H](C/C=C(\\C)[C@@H](OC3C[C@H](OC)C(O[C@H]4C[C@H](OC)[C@@H](O)[C@H](C)O4)[C@H](C)O3)[C@@H](C)/C=C/C=C3\\CO[C@@H]4[C@H](O)C(C)=C[C@@H](C(=O)O1)[C@]34O)O2 (some centres undefined)", "observed measurement": 1}
{"compound": "CC(=O)c1cc(CC=C(C)C)c(O)c(CC=C(C)C)c1", "observed measurement": 1.02}
{"compound": "CCOC(=O)[C@H](CCc1ccccc1)N[C@@H](C)C(=O)N1CCC[C@H]1C(=O)O", "observed measurement": 1}
{"compound": "CC[N+](C)(C)c1cccc(O)c1", "observed measurement": 0.951}
{"compound": "CN(C)[C@@H]1C(=O)C(C(N)=O)=C(O)[C@@]2(O)C(=O)C3=C(O)c4c(O)ccc(Cl)c4[C@@H](O)[C@H]3C[C@@H]12", "observed measurement": 1.05}
{"compound": "CC(C)CCCC(C)C1CCC2C3=CC[C@H]4C[C@@H](O)CC[C@]4(C)C3CC[C@@]21C (some centres undefined)", "observed measurement": 0.946}
{"compound": "N=C(N)N", "observed measurement": 0.949}
{"compound": "C[C@H]1c2cccc(O)c2C(O)=C2C(=O)[C@]3(O)C(O)=C(C(N)=O)C(=O)[C@@H](N(C)C)[C@@H]3[C@@H](O)[C@@H]21", "observed measurement": 0.923}
{"compound": "COc1ccccc1OCC(O)CO (centres undefined)", "observed measurement": 0.995}
{"compound": "CC(=O)O[C@H]1CC[C@@]2(C)C(C[C@@H](OC(C)=O)[C@@]3(C)C4=CC(=O)O[C@@H](c5ccoc5)[C@]4(C)CCC23)C1(C)C (some centres undefined)", "observed measurement": 1.01}

###

experiment: chemical genetic growth profiling, strain panel (AID 1159580);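 also: tested at 20 µM; growth read once vehicle control cultures reached saturation at 30 °C; 1 = growth at the plate median or of vehicle wells; lower values mean less growth of the strain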; details: S. cerevisiae deletion strains, growth OD, locus YDL101C, strain DUN1
Hit rate of the full screen: of about 5,500 compounds, about 2,000 (36%) were called active. Roughly 18% stayed inconclusive and do not appear here. Cut-off read from the data, not from the text of the source: active = normalized growth mostly below about 0.91 (no sharp cut-off); inconclusive = no clear call, values can overlap the other calls; inactive = mostly above about 0.92. The list shows a part of the results.
Classes used: true for active, false for inactive

{"molecule": "CC(C)=CCc1c2c(c3occ(-c4ccc(O)c(O)c4)c(=O)c3c1O)C=CC(C)(C)O2", "cat": "true"}
{"molecule": "Cc1ccc(-c2nn[nH]n2)cc1Cl", "cat": "false"}
{"molecule": "O=[N+]([O-])c1cccc(C2CC(c3ccccc3)=Nc3ccccc3S2)c1 (stereo unspecified)", "cat": "false"}
{"molecule": "CC(C)=CCc1c2c(c3occ(-c4ccc(O)cc4)c(=O)c3c1O)C=CC(C)(C)O2", "cat": "false"}
{"molecule": "C#CCSC1=NNC(c2ccccn2)S1 (stereo unspecified)", "cat": "true"}
{"molecule": "CC(C)CCCC(C)[C@H]1CCC2C3CC=C4CC(=O)CC[C@]4(C)C3CC[C@@]21C (stereo partly specified)", "cat": "false"}
{"molecule": "O=C(O)C1=CCCNC1", "cat": "false"}
{"molecule": "Clc1cncc(Cl)c1N/N=C\\C1CC2C=CC1C2 (stereo unspecified)", "cat": "false"}
{"molecule": "CN(C)c1ccc(O)c2c1C[C@H]1C[C@H]3[C@H](N(C)C)C(=O)C(C(N)=O)=C(O)[C@@]3(O)C(=O)C1=C2O", "cat": "false"}
{"molecule": "CC(C)CCCC(C)C1CCC2C3C[C@@H](O)[C@@]4(O)C[C@@H](O)CC[C@]4(C)C3CC[C@]12C (stereo partly specified)", "cat": "false"}
{"molecule": "Oc1c(Cl)cc(Cl)cc1Sc1cc(Cl)cc(Cl)c1O", "cat": "false"}

###

In this section we review reported normalized growth values for a set of compounds.
assay: chemical genetic growth profiling, strain panel (AID 1159580);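 also: tested at 20 µM; growth read once vehicle control cultures reached saturation at 30 °C; 1 = growth at the plate median or of vehicle wells; lower values mean less growth of the strain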; conditions: S. cerevisiae deletion strains, growth OD, locus YER155C, strain BEM2 (second series), hits give low values
Screen size: about 5,500 compounds; about 2,000 (36%) were called active. Another 18% or so got no clear call; they are omitted. The list shows a part of the results.

{"compound": "NC(=O)NC(=O)Cc1ccccc1", "normalized growth": 1.04}
{"compound": "Cc1cc(=O)oc2cc(O)cc(O)c12", "normalized growth": 0.932}
{"compound": "CN(C)CCCN1c2ccccc2Sc2ccccc21", "normalized growth": 1.01}
{"compound": "COc1ccc(C2Sc3ccccc3N(CCN(C)C)C(=O)C2OC(C)=O)cc1 (stereo not drawn)", "normalized growth": 0.986}
{"compound": "CC(C)(C)NC[C@H](O)c1ccc(O)c(CO)c1", "normalized growth": 1.03}
{"compound": "O=C(O)c1ccccc1", "normalized growth": 0.962}
{"compound": "COc1ccccc1OCC(O)CO (stereo not drawn)", "normalized growth": 1.02}
{"compound": "CC(CCC(=O)O)[C@H]1CCC2C3CC[C@@H]4C[C@H](O)CC[C@]4(C)C3C=C[C@@]21C (stereo partly drawn)", "normalized growth": 1.08}
{"compound": "CN(C)CCCN1c2ccccc2CCc2ccc(Cl)cc21", "normalized growth": 1.01}
{"compound": "NS(=O)(=O)c1cc2c(cc1Cl)NC(CSCc1ccccc1)=NS2(=O)=O", "normalized growth": 1.04}
{"compound": "CCCN(CCC)S(=O)(=O)c1ccc(C(=O)O)cc1", "normalized growth": 0.978}
{"compound": "Nc1ccc(S(=O)(=O)NC(=O)c2ccccc2)cc1", "normalized growth": 1.02}
{"compound": "CNNC", "normalized growth": 1.04}
{"compound": "Cc1scc2c1N(C(=O)CN1CCN(C)CC1)c1ccccc1NC2=O", "normalized growth": 0.939}
{"compound": "CC(C)C[C@@H](CN)CC(=O)O", "normalized growth": 1}
{"compound": "CC(CCC(=O)O)[C@H]1CCC2C3C(=O)C[C@@H]4CC(=O)CC[C@]4(C)C3CC(=O)[C@@]21C (stereo partly drawn)", "normalized growth": 0.999}
{"compound": "C/C=C\\C1=C(C(=O)O)N2C(=O)C(NC(=O)C(N)c3ccc(O)cc3)C2SC1 (stereo not drawn)", "normalized growth": 1.01}
{"compound": "CC(=O)O[C@H]1CC[C@@]2(C)C(=CC(=O)C3C4CCC(C(C)CCCC(C)C)[C@@]4(C)CCC32)C1 (stereo partly drawn)", "normalized growth": 1.01}
{"compound": "COc1ccc([C@@H]2CC(=O)c3c(O)cc(O[C@@H]4O[C@H](CO[C@H]5O[C@@H](C)[C@H](O)[C@@H](O)[C@H]5O)[C@@H](O)[C@H](O)[C@H]4O)cc3O2)cc1O", "normalized growth": 0.987}
{"compound": "CC1(C)CC2C1CC[C@]1(C)CCC3C(C(=O)O)CC(=O)O[C@@]32C1 (stereo partly drawn)", "normalized growth": 1.04}
{"compound": "CN[C@@H]1[C@H](O)[C@H](NC)[C@H]2O[C@@]3(O)C(=O)C[C@@H](C)O[C@H]3O[C@@H]2[C@H]1O", "normalized growth": 1.04}
{"compound": "N=C(N)N", "normalized growth": 0.976}
{"compound": "O=C(O)c1ccc(S(=O)(=O)N(Cl)Cl)cc1", "normalized growth": 0.979}
